Target: Glucocorticoid receptor (Homo sapiens)
Sequence (whole entry): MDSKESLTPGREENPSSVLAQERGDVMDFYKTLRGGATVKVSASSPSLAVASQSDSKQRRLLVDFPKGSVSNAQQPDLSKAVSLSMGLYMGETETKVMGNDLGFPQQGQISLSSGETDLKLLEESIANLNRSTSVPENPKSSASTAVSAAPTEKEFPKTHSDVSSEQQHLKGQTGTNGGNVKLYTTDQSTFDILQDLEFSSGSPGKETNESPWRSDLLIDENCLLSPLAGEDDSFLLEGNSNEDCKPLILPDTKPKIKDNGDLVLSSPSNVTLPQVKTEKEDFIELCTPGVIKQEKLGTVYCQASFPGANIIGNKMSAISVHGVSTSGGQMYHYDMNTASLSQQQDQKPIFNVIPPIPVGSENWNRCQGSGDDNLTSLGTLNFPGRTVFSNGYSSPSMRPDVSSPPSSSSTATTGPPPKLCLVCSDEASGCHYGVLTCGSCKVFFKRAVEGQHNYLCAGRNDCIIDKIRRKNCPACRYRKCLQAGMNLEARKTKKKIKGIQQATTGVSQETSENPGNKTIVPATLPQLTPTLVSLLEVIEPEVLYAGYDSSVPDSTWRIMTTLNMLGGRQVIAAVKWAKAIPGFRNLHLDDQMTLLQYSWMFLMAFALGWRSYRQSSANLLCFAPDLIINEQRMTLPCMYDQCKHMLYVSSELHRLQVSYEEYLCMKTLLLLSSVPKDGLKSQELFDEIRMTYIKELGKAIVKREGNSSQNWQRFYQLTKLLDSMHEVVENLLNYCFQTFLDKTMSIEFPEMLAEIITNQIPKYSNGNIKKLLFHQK
Test: Transactivation activity at GR-mediated modulation of MMTV promoter activity in human A549 cells transfected with luciferase gene linked to MMTV promoter after 16 hrs by luciferase reporter gene assay relative to dexamethasone
Type: cell-based
assay.metric: Emax (%)

| molecule | target.of.assay | reading.unit | Emax |
| --- | --- | --- | --- |
| CNC(=O)c1ccccc1CC[C@]1(O)CCC2=Cc3c(cnn3-c3ccc(F)cc3)C[C@@]21C | Glucocorticoid receptor (Homo sapiens) | % | 49 |

a: CC1(NC(=O)c2c(F)cccc2CC[C@]2(O)CCC3=Cc4c(cnn4-c4ccc(F)cc4)C[C@@]32C)CC1
b: C[C@]12Cc3cnn(-c4ccc(F)cc4)c3C=C1CC[C@@]2(O)CCc1c(F)cccc1C(N)=O
c: C[C@]12Cc3cnn(-c4ccc(F)cc4)c3C=C1CC[C@@]2(O)CCc1cc(F)ccc1C(N)=O
Prompt: Would you mind ranking these compounds by ascending Emax? Sort the labels as requested; that list is your answer.
Response: a, b, c
(a: 41%, b: 82%, c: 120%)

----------
Molecular target: Glucocorticoid receptor (Homo sapiens, UniProt P04150)
Sequence (P04150 whole entry): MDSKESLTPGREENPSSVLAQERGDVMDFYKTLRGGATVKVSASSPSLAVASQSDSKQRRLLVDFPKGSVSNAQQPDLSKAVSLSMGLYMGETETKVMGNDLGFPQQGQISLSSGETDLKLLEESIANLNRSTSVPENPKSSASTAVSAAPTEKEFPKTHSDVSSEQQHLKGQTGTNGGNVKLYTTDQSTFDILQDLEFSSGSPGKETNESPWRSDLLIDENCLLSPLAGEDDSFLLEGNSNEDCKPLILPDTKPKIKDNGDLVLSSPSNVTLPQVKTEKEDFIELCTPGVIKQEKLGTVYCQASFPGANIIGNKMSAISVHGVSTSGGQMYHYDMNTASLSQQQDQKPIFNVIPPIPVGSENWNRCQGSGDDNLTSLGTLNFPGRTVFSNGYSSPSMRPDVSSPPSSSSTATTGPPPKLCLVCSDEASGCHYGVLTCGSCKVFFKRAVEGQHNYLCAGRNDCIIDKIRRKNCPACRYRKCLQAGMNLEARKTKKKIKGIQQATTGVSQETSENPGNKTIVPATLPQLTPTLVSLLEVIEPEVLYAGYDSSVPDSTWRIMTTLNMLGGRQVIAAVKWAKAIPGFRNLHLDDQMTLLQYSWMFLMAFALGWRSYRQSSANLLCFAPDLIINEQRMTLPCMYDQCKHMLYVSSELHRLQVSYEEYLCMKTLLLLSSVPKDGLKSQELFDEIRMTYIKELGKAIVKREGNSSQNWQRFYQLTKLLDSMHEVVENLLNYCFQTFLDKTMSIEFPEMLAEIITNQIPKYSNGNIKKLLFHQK
Experiment: Displacement of [3H]-dexamethasone from human full length GR expressed in insect Sf21 cells
pKi: −log10 of the molar value.
assay.metric: pKi

| compound | pKi |
| --- | --- |
| CNC(=O)c1ccccc1CC[C@]1(O)CCC2=Cc3c(cnn3-c3ccc(F)cc3)C[C@@]21C | 8.70 |
| C[C@]12Cc3cnn(-c4ccc(F)cc4)c3C=C1CC[C@@]2(O)CCc1ccccc1C(N)=O | 8.70 |
| C[C@@]12C(=Cc3c(cnn3-c3ccc(F)cc3)C1O)CC[C@@]2(O)CCc1ccc(F)cc1C(N)=O (stereo partly drawn) | 7.24 |
| CC(C)NC(=O)c1ccccc1CC[C@]1(O)CCC2=Cc3c(cnn3-c3ccc(F)cc3)C[C@@]21C | 8.40 |

1: CC(C)(C)NC(=O)c1ccccc1CC[C@]1(O)CCC2=Cc3c(cnn3-c3ccc(F)cc3)C[C@@]21C
2: CCNC(=O)c1ccccc1CC[C@]1(O)CCC2=Cc3c(cnn3-c3ccc(F)cc3)C(O)[C@@]21C (stereo partly drawn)
Prompt: Name the one with the greater pKi value, either 1 or 2 as given. Reply briefly: the label of your chosen item.
Response: 1
(1: 8.00, 2: 7.40)

----------
biological target: Glucocorticoid receptor (Homo sapiens) (UniProt P04150); experiment: Transrepression activity at glucocorticoid receptor in human LPS and TPA-stimulated U937 cells assessed as effect on glucocorticoid-induced TNFalpha repression by beta lactamase reporter gene assay; format: cell-based; conditions: U-937
assay.metric: IP (nM)

Previously resolved entries follow.
| compound | target.of.assay | reading.unit | IP |
| --- | --- | --- | --- |
| CC(C)(C)NC(=O)c1ccccc1CC[C@]1(O)CCC2=Cc3c(cnn3-c3ccc(F)cc3)C[C@@]21C | Glucocorticoid receptor (Homo sapiens) (UniProt P04150) | nM | 246 |
| C=CCNC(=O)c1ccccc1CC[C@]1(O)CCC2=Cc3c(cnn3-c3ccc(F)cc3)C[C@@]21C | Glucocorticoid receptor (Homo sapiens) (UniProt P04150) | nM | 123 |

a: CNC(=O)c1ccccc1CC[C@]1(O)CCC2=Cc3c(cnn3-c3ccc(F)cc3)C[C@@]21C
b: C[C@]12Cc3cnn(-c4ccc(F)cc4)c3C=C1CC[C@@]2(O)CCc1ccccc1C(N)=O
c: C=C(C)CNC(=O)c1c(F)cccc1CC[C@]1(O)CCC2=Cc3c(cnn3-c3ccc(F)cc3)C[C@@]21C
d: CCCNC(=O)c1c(F)cccc1CC[C@]1(O)CCC2=Cc3c(cnn3-c3ccc(F)cc3)C[C@@]21C
Prompt: # desc sort on IP across 4 compounds Provide the labels, sequenced as the question asks.
Response: a, c, b, d
(a: 263 nM, c: 119 nM, b: 56 nM, d: 30 nM)

I: CC(C)NC(=O)c1ccccc1CC[C@]1(O)CCC2=Cc3c(cnn3-c3ccc(F)cc3)C[C@@]21C
II: C[C@]12Cc3cnn(-c4ccc(F)cc4)c3C=C1CC[C@@]2(O)CCc1cc(F)ccc1C(N)=O
Prompt: Between the two listed entries I and II , which has its IP at the higher number? Please respond with the label that marks your chosen entry.
Response: I
(I: 170 nM, II: 89 nM)

A: CC(C)(CO)NC(=O)c1ccccc1CC[C@]1(O)CCC2=Cc3c(cnn3-c3ccc(F)cc3)C[C@@]21C
B: C[C@]12Cc3cnn(-c4ccc(F)cc4)c3C=C1CC[C@@]2(O)CCc1ccc(F)cc1C(N)=O
Prompt: Between the two listed entries A and B , which has its IP at the higher number? Answer = label.
Response: B

I: CCNC(=O)c1ccccc1CC[C@]1(O)CCC2=Cc3c(cnn3-c3ccc(F)cc3)C[C@@]21C
II: C[C@]12Cc3cnn(-c4ccc(F)cc4)c3C=C1CC[C@@]2(O)CCc1cccc(F)c1C(N)=O
Prompt: Kindly identify which of I and II has the larger recorded IP value. Identify your pick by its label.
Response: I
(I: 88 nM, II: 10 nM)

----------
molecular target: Glucocorticoid receptor (Homo sapiens)
pKi: −log10 of the molar value.
Listed next: entries and their corresponding pKi.

| molecule | result |
| --- | --- |
| C[C@]12Cc3cnn(-c4ccc(F)cc4)c3C=C1CC[C@@]2(O)CCc1cc(F)ccc1C(N)=O | > 9.00 |

Case "Cc1cc2cnn(-c3ccc(F)cc3)c2cc1CCC(=O)CCc1ccc(F)cc1C(=O)O" , Glucocorticoid receptor (Homo sapiens), pKi recorded as < 6.40

Entry "C[C@]12Cc3cnn(-c4ccc(F)cc4)c3C=C1CC[C@@]2(O)CCc1ccc(F)cc1C(N)=O" under Glucocorticoid receptor (Homo sapiens) had pKi of 8.52

Just for reference, ChEMBL document CHEMBL2146476 is where these values come from.
